Values were extracted from ChEMBL document CHEMBL1201862.

System: SK-OV-3
Method description: NCI tumour cell line growth inhibition, 48 h
Calls of active or inactive are those of the source. Cut-off read from the data, not from the text of the source: active = GI50 up to about 1.1 µM and inactive = higher.
Listing of recorded GI50 by entry.

Solved cases (6 shown):
compound=Cc1cc2c(C)nn(Cc3ccccc3)c2c(C(N)=O)c1C target_desc=SK-OV-3 reported_measurement="> 100 µM (inactive)"
compound="Cn1c(=O)oc2cc(C3CCC(=O)N3Cc3ccc(Cl)cc3)ccc21 (stereo not given)" target_desc=SK-OV-3 reported_measurement="93.3 µM (inactive)"
compound="CCOP(=O)(OCC)C(C)(CC)N/C(N)=N/C#N (stereo not given)" target_desc=SK-OV-3 reported_measurement="> 100 µM (inactive)"
compound=CCOP(=O)(C=C=C(C)C)OCC target_desc=SK-OV-3 reported_measurement="> 100 µM (inactive)"
compound=Cc1nc(-c2nc(C)c(C(=O)/C=C/c3ccc([N+](=O)[O-])cc3)s2)sc1C(=O)/C=C/c1ccc([N+](=O)[O-])cc1 target_desc=SK-OV-3 reported_measurement="> 100 µM (inactive)"
compound=CC1=C(C)CC2(C=C(C(C)(C)C)C(=O)C(C(C)(C)C)=C2)SC1 target_desc=SK-OV-3 reported_measurement="25 µM (inactive)"

Q) Would you mind telling me what GI50 value was observed for Cc1ccc(C2=NN(C)COC2C(F)(F)F)cc1 (stereo not given) ?
A) > 100 µM (inactive)

Q) Follow-up entry: `CCOC(=O)n1ccc2c(C(=O)OC)c(C(=O)OC)cc(/C(=C/C(=O)OC)C(=O)OC)c21`
A) > 100 µM (inactive)

Q) Follow-up entry: COC(=O)c1ccccc1CC1Cc2cccc(C)c2C1=O (stereo not given)
A) 38.9 µM (inactive)

Q) Follow-up entry: COc1ccc(/C=C/C(=O)OC2CC34CCNC35CC(OC5(OC)C2OC)c2ccc(OC)c(O)c24)cc1O (stereo not given)
A) > 100 µM (inactive)

###

System: UO-31
Method description: NCI tumour cell line growth inhibition, 48 h
Activity calls are given as the source filed them. No stated cut-off is given here; in the data, active = GI50 up to about 1.1 µM and inactive = higher.
Listing of recorded GI50 by entry.

compound=CCOC(=O)NC(=O)c1cn(CCN2CCN(c3ncnc4[nH]cnc34)CC2)c(=O)[nH]c1=O reported_measurement="> 100 µM (inactive)"
compound=O=Nn1c2ccccc2c2ccccc21 reported_measurement="34.4 µM (inactive)"
compound=CC1(C)O[C@H]2Cn3c(c(C#N)c4ccccc43)[C@H]2O1 reported_measurement="> 100 µM (inactive)"
compound=COc1ccc(N2C(=O)c3cc(C)cnc3S2(=O)=O)cc1 reported_measurement="> 100 µM (inactive)"

Q) Would you mind telling me what GI50 value was observed for `C[N+](C)(C)CC(=O)N/N=C(/Cc1nc2c3c(ccc2nc1O)C(=O)c1ccccc1C3=O)C(=O)Nc1ccc(Cl)c(Cl)c1` ?
A) 6.84 µM (inactive)

Q) Follow-up entry: O=C1Oc2cc(O)cc(/C=C/c3ccc(O)cc3)c2[C@@]12c1c(O)cc(O)cc1OC2c1cccc(O)c1 (some centres not stated)
A) 29.7 µM (inactive)

Q) Follow-up entry: CC(CC[C@@]1(C)C(=O)CCC2O[C@]21C)[C@H]1C[C@@H](c2ccoc2)OC1=O (some centres not stated)
A) 17.2 µM (inactive)

###

Listing of recorded GI50 by entry.
Test system: HOP-62
Method description: NCI tumour cell line growth inhibition, 48 h
Calls of active or inactive are those of the source. Rule as the data show it: active = GI50 up to about 1.1 µM and inactive = higher.

Solved cases (2 shown):
molecule="CC(O)=NC(Cc1ccc2ccccc2c1)C(O)=NC(Cc1ccc(Cl)cc1)C(O)=NC(Cc1c[nH]c2ccccc12)C(O)=NC(CO)C(O)=NC(Cc1ccc(O)cc1)C(O)=NC(CCCN=C(N)N)C(O)=NC(CC(C)C)C(O)=NC(CCCN=C(N)N)C(=O)N1CCCC1C(O)=NC(C)C(=N)O (configuration not stated)" measured_endpoint=GI50 reported_measurement="85.7 µM (inactive)"
molecule=C=CC(C)(C)/C=C/c1ccc(O)cc1 measured_endpoint=GI50 reported_measurement="58.2 µM (inactive)"

Q) Would you mind telling me what GI50 value was observed for CC(C)OCC1CC(CC(=O)Nc2nncs2)C(=O)O1 (configuration not stated) ?
A) > 100 µM (inactive)

Q) Follow-up entry: `CC1(C)O[C@H]2Cn3c(c(C#N)c4ccccc43)[C@H]2O1`
A) > 100 µM (inactive)

Q) Follow-up entry: `CC[C@@H]1CC[C@@H]2[C@H](CC[C@]3(C)[C@@H](OC(C)=O)CC[C@@H]23)[C@H]1COC(C)=O`
A) 30.4 µM (inactive)

Q) Follow-up entry: CCOc1cc(C2SCC(=O)N2c2nc3cc4sc(N5C(=O)CSC5c5ccc(O)c(OCC)c5)nc4cc3s2)ccc1O (configuration not stated)
A) > 100 µM (inactive)

Q) Follow-up entry: `CNC(=O)c1nnn(Cc2ccccc2)c1S`
A) > 100 µM (inactive)

###

System: SK-MEL-28
Method description: NCI tumour cell line growth inhibition, 48 h
Active and inactive are the calls of the source. Cut-off read from the data, not from the text of the source: active = GI50 up to about 1.1 µM and inactive = higher.
Measured endpoint: GI50

Solved cases (2 shown):
compound=[O-]/[N+](=N/c1ncc(-c2ccccc2)cn1)c1ncc(-c2ccccc2)cn1 target_desc=SK-MEL-28 reported_measurement="> 61.9 µM (inactive)"
compound="Cc1c(CNc2ccc(C(=O)NC(CC(=O)O)C(=O)O)cc2)ccc2nc(N)nc(N)c12 (stereo not drawn)" target_desc=SK-MEL-28 reported_measurement="1.7 µM (inactive)"

Consider now this further compound.
Q) Would you mind telling me what GI50 value was observed for `Nc1ccc(-c2nc3ccccc3s2)cc1` ?
A) 17.1 µM (inactive)

###

Test system: SK-MEL-2
Method description: NCI tumour cell line growth inhibition, 48 h
The source made the active and inactive calls. Cut-off read from the data, not from the text of the source: active = GI50 up to about 1.1 µM and inactive = higher.
Result category, one only: 1 for active, 0 for inactive

compound="CCCCCC(/C=C/[C@@H]1CC(=O)C[C@H]1O[Si](C)(C)C(C)(C)C)OCOCCOC (stereo partly specified)" cat=0

Q) How was O=S(=O)(c1ccccc1)C1(C2(S(=O)(=O)c3ccccc3)CCN=N2)CCN=N1 (stereo unspecified) classified in this test?
A) 0

Q) Follow-up entry: NC(CCCCCP(=O)(c1ccccc1)C1C=CC=CC1)C(=O)O (stereo unspecified)
A) 0

Q) Follow-up entry: O=C(Nc1ccccc1)N1CC(CN2CCN(c3ccccc3)CC2)OC1=O (stereo unspecified)
A) 0

Q) Follow-up entry: `CCOC(=O)/C(=C/c1ccc(C(F)(F)F)cc1)N(CC)CC`
A) 0

Q) Follow-up entry: `CSc1nncc2[nH]c(C)nc12`
A) 0

###

Listing of recorded GI50 by entry.
System: OVCAR-4
Method description: NCI tumour cell line growth inhibition, 48 h
Calls of active or inactive are those of the source. Cut-off read from the data, not from the text of the source: active = GI50 up to about 1.1 µM and inactive = higher.

Solved cases (3 shown):
compound=C=CCSc1nc2ccccc2c(=O)n1Cc1ccco1 target_desc=OVCAR-4 reported_measurement="80.5 µM (inactive)"
compound=COC(=O)c1c[nH]cc1CCCCc1c[nH]cc1C(=O)OC target_desc=OVCAR-4 reported_measurement="> 100 µM (inactive)"
compound="CCCC(C(=O)Nc1cccc2nc[nH]c12)C(=O)OCC (configuration not stated)" target_desc=OVCAR-4 reported_measurement="> 100 µM (inactive)"

Q) Request body: readout GI50, system OVCAR-4, query `NC(=O)/C=C/c1c[nH]c2nccnc12` . Return the value.
A) 4.09 µM (inactive)

Q) Follow-up entry: Cc1cc(O)c(C(=O)CC2(O)C(=O)Nc3c(Cl)cc(Cl)cc32)c(=O)o1 (configuration not stated)
A) > 100 µM (inactive)

Q) Follow-up entry: `O=C(Cn1ccnc1[N+](=O)[O-])N(CCO)CCO`
A) > 250 µM (inactive)

Q) Follow-up entry: `Cc1nc2c(n1-c1ccccc1)C(=O)c1ccccc1C2=O`
A) 28.2 µM (inactive)

###

System: LOX IMVI
Method description: NCI tumour cell line growth inhibition, 48 h
The source made the active and inactive calls. No stated cut-off is given here; in the data, active = GI50 up to about 1.1 µM and inactive = higher.
Measured endpoint: GI50

Solved cases (5 shown):
compound=CCOC(=O)C1=C(C(C)=O)CSC(c2ccccc2)=N1 reported_measurement="> 100 µM (inactive)"
compound=Nc1nc(Cl)c(/C=N\O)c(NCC2(CO)CC(=O)C2)n1 reported_measurement="45.8 µM (inactive)"
compound="CN(C)/N=C1\\CC(c2ccccc2)C(C#N)(C#N)C1(C#N)C#N (stereo not given)" reported_measurement="27.5 µM (inactive)"
compound="CCCCCCCCOCC(O)COC(=O)CCCCCCC (stereo not given)" reported_measurement="> 100 µM (inactive)"
compound="O=C1C[C@@]23CCC4(CC2CCC[C@H]3O1)OCCO4 (stereo not given in full)" reported_measurement="> 100 µM (inactive)"

Q) Would you mind telling me what GI50 value was observed for CC12Oc3ccc4ccccc4c3C1c1c(ccc3ccccc13)O2 (stereo not given) ?
A) > 100 µM (inactive)

Q) Follow-up entry: `CN(C)c1ccc(C(c2ccc(Cl)cc2)c2ccc(N(C)C)cc2)cc1`
A) > 100 µM (inactive)
